Measured values drawn from ChEMBL document CHEMBL4251547 for this set.

# experiment-summary: Oral bioavailability in cynomolgus monkey at 3 mg/kg
# Assay type: ADME, organism-based, Macaca fascicularis
# details: in vivo
quantity-name: bioavailability (%)
Write it as a number; the unit % goes unstated.

Find the measured bioavailability of CNC(=O)c1c(-c2ccc(F)cc2)oc2nc(CCC(F)(F)F)c(-c3cccc(C(=O)NC(C)(C)c4ncon4)c3)cc12 and report it.
61

###

Can you tell me Cmax for the items I'm about to list?
# experiment-summary: Cmax in rat at 2 mg/kg, iv
# Format: ADME, organism-based
# Set-up: dose 2 mg/kg, route intravenous
# details: in vivo
Form entry: value (nM) — number only.

# return recorded Cmax for input CNC(=O)c1c(-c2ccc(F)cc2)oc2nc(CCC(F)(F)F)c(-c3cccc(C(=O)NC(C)(C)c4ncon4)c3)cc12
1700

Identify Cmax associated with the molecule CNC(=O)c1c(-c2ccc(F)cc2)oc2nc(CCC(F)(F)F)c(-c3cccc(C(=O)NC45CC(C4)C5)c3)cc12
3200

Supply Cmax value. Item: CNC(=O)c1c(-c2ccc(F)cc2)oc2nc(NCC(F)(F)F)c(-c3cccc(C(=O)NC(C)(C)c4ncon4)c3)cc12
2500

Supply recorded Cmax for CCNc1nc2oc(-c3ccc(F)cc3)c(C(=O)NC)c2cc1-c1cccc(C(=O)NC(C)(C)C)c1 here.
1700

###

# experiment-summary: AUC in cynomolgus monkey at 3 mg/kg, po
# Assay type: ADME, organism-based, Macaca fascicularis
# details: in vivo
quantity-name: AUC (µM·h)
Report only the number, with the unit µM·h understood.

Specify AUC for CNC(=O)c1c(-c2ccc(F)cc2)oc2nc(CCC(F)(F)F)c(-c3cccc(C(=O)NC(C)(C)c4ncon4)c3)cc12 and stop.
8.3

###

# experiment-summary: Drug uptake in rat liver at 6 mg/kg, po after 48 hrs
# Assay type: ADME, organism-based
# details: read-out: Drug uptake
quantity-name: concentration at 48 h
Note: state the figure and append the unit.

Give a short answer stating reported concentration at 48 h for CNC(=O)c1c(-c2ccc(F)cc2)oc2nc(CCC(F)(F)F)c(-c3cccc(C(=O)NC45CC(C4)C5)c3)cc12 .
820 nM

###

# experiment-summary: Plasma concentration in rat at 6 mg/kg, po after 24 hrs
# Assay type: ADME, organism-based
Give concentration at 24 h for every item shown.
Numbers only here, please. The scale is nM.

Consider the compound CNC(=O)c1c(-c2ccc(F)cc2)oc2nc(CCC(F)(F)F)c(-c3cccc(C(=O)NC45CC(C4)C5)c3)cc12 and give its recorded concentration at 24 h.
160

Name the recorded concentration at 24 h of the compound listed here: CNC(=O)c1c(-c2ccc(F)cc2)oc2nc(NCC(F)(F)F)c(-c3cccc(C(=O)NC(C)(C)c4ncon4)c3)cc12
39

Give recorded concentration at 24 h. CCNc1nc2oc(-c3ccc(F)cc3)c(C(=O)NC)c2cc1-c1cccc(C(=O)NC(C)(C)C)c1
560

Supply measured concentration at 24 h of CNC(=O)c1c(-c2ccc(F)cc2)oc2nc(CCC(F)(F)F)c(-c3cccc(C(=O)NC(C)(C)c4ncon4)c3)cc12 in your reply.
150

###

# experiment-summary: Oral bioavailability in rat at 6 mg/kg
# Format: ADME, organism-based
# details: in vivo
Answer each item with its documented bioavailability.
Report as a plain number; the unit % is understood.

Please report the measured bioavailability for CNC(=O)c1c(-c2ccc(F)cc2)oc2nc(CCC(F)(F)F)c(-c3cccc(C(=O)NC(C)(C)c4ncon4)c3)cc12
58

Identify the reported bioavailability for the following entry. CCNc1nc2oc(-c3ccc(F)cc3)c(C(=O)NC)c2cc1-c1cccc(C(=O)NC(C)(C)C)c1
64

Read the entry CNC(=O)c1c(-c2ccc(F)cc2)oc2nc(CCC(F)(F)F)c(-c3cccc(C(=O)NC45CC(C4)C5)c3)cc12 and write its reported bioavailability.
44
